Entries annotated with measured pEC50
- Test system: PBMC
- PROCEDURE DETAILS: cells
- Assay type: cell-based
- RECORDED CONDITIONS: Homo sapiens, 48 h, read-out: Cell TiterGlo Viability (EC50)
pEC50: −log10 of the molar value.

Observe how each entry below is paired with its result.
CCS(=O)(=O)c1ccc(CNC(=O)c2cc3c(s2)C2(CCN([C@H](C)c4cnc(C(F)(F)F)nc4)CC2)OC(C)(C)C3)nc1 [Example 5] = < 6.00
CCS(=O)(=O)c1ccc(CNC(=O)c2cc3c(s2)C2(CCN(C(C)c4ccc(C#N)cc4)CC2)OC2(CC2)C3)cc1 (single isomer, unassigned; isomer 1) [Example 8] = < 6.00

Now let's try a different one.
[in] Query: pEC50; subject: CCS(=O)(=O)c1ccc(CNC(=O)c2cc3c(s2)C2(CCN([C@H](C)c4cnc(C(F)(F)F)nc4)CC2)OC2(CC2)C3)nc1 [Example 7]
[out] < 6.00
